Assay: total protein half-life in vivo (active degradation + dilution); higher = more stable protein
Conditions: wild type E. coli NCM3722; growth: N-lim chemostat; doubling time 6 h
Label MET when total protein half-life in vivo is at or above 2 h; otherwise label NOT MET.

MKIVIAPDSFKESLSAEKCCQAIKAGFSTLFPDANYICLPIADGGEGTVDAMVAATGGNIVTLEVCGPMGEKVNAFYGLTGDGKTAVIEMAAASGLMLVAPEKRNPLLASSFGTGELIRHALDNDIRHIILGIGGSATVDGGMGMAQALGVRFLDADGQALAANGGNLARVASIEMDECDPRLANCHIEVACDVDNPLVGARGAAAVFGPQKGATPEMVEELEQGLQNYARVLQQQTEINVCQMAGGGAAGGMGIAAAVFLNADIKPGIEIVLNAVNLAQAVQGAALVITGEGRIDSQTAGGKAPLGVASVAKQFNVPVIGIAGVLGDGVEVVHQYGIDAVFSILPRLAPLAEVLASGETNLFNSARNIACAIKIGQGIKN    MET
MKDKVYKRPVSILVVIYAQDTKRVLMLQRRDDPDFWQSVTGSVEEGETAPQAAMREVKEEVTIDVVAEQLTLIDCQRTVEFEIFSHLRHRYAPGVTRNTESWFCLALPHERQIVFTEHLAYKWLDAPAAAALTKSWSNRQAIEQFVINAA [P0AFC0]    MET

Ask: Decide: is the reported value of total protein half-life in vivo for MKFKTNKLSLNLVLASSLLAASIPAFAVTGDTDQPIHIESDQQSLDMQGNVVTFTGNVIVTQGTIKINADKVVVTRPGGEQGKEVIDGYGKPATFYQMQDNGKPVEGHASQMHYELAKDFVVLTGNAYLQQVDSNIKGDKITYLVKEQKMQAFSDKGKRVTTVLVPSQLQDKNNKGQTPAQKKGN [P0ADV1] equal to or greater than 2 h?
Result: MET

Ask: Also need MNTLLLLAALSSQITFNTTQQGDVYTIIPEVTLTQSCLCRVQILSLREGSSGQSQTKQEKTLSLPANQPIALTKLSLNISPDDRVKIVVTVSDGQSLHLSQQWPPSSEKS , thanks.
Result: MET

Ask: What would you report for MEYKDPMHELLSSLEQIVFKDETQKITLTHRTTSCTEIEQLRKGTGLKIDDFARVLGVSVAMVKEWESRRVKPSSAELKLMRLIQANPALSKQLME [P0A9V5] ?
Result: NOT MET

###

Assay: total protein half-life in vivo (active degradation + dilution); higher = more stable protein
Conditions: wild type E. coli NCM3722; growth: P-lim chemostat; doubling time 12 h
testReadout: total protein half-life in vivo (h)
// units = h; emit number, no label

MVTFHTNHGDIVIKTFDDKAPETVKNFLDYCREGFYNNTIFHRVINGFMIQGGGFEPGMKQKATKEPIKNEANNGLKNTRGTLAMARTQAPHSATAQFFINVVDNDFLNFSGESLQGWGYCVFAEVVDGMDVVDKIKGVATGRSGMHQDVPKEDVIIESVTVSE    11.1
MVTSCTGHVLDNQRATTRGVFSSGSHLVTLHFQPHPFFSCVTDAVNGARSRFSAFYPKANYGLQGSQPSDVRAHNRAANGACDEYKQLKVLSMGRQKAVIKARREAKRVLRRDSRSHKQREEESVTSLVQMGGVEAIGMARDSRDTSPILARNEAQLHYLKAIESKQLIFATGEAGCGKTWISAAKAAEALIHKDVDRIIVTRPVLQADEDLGFLPGDIAEKFAPYFRPVYDVLVRRLGASFMQYCLRPEIGKVEIAPFAYMRGRTFENAVVILDEAQNVTAAQMKMFLTRLGENVTVIVNGDITQCDLPRGVCSGLSDALERFEEDEMVGIVRFGKEDCVRSALCQRTLHAYS [P0A9K1]    1.23

Ask: So what does the record say about total protein half-life in vivo for MQILADLLNTIPAIDSTAMSRAQRHIDGLLKPVGSLGKLEVLAIQLAGMPGLNGIPHVGKKAVLVMCADHGVWEEGVAISPKEVTAIQAENMTRGTTGVCVLAEQAGANVHVIDVGIDTAEPIPGLINMRVARGSGNIASAPAMSRRQAEKLLLDVICYTQELAKNGVTLFGVGELGMANTTPAAAIVSTITGRDPEEVVGIGANLPTDKLANKIDVVRRAITLNQPNPQDGVDVLAKVGGFDLVGIAGVMLGAASCGLPVLLDGFLSYAAALAACQMSPAIKPYLIPSHLSAEKGARIALSHLGLEPYLNMEMRLGEGSGAALAMPIIEAACAIYNNMGELAASNIVLPGNTTSDLNS ?
Result: 9.91

Ask: Another: MRYHGDMLLTTPVISTLKQNYPDAKIDMLLYQDTIPILSENPEINALYGISNKGAGTFDKIKNVLSLIKTLRANNYDLVINLTDQWMVALLVRCLPARMKISQLYGHRQHGIWKKSFTHLAPIHGTHIVERNLSVLEPLGITDFYTDTTMSYAEDCWKKMRRELDALGVKDHYVVIQPTARQIFKCWDNDKFSKVIDALQQRGYQVVLTCGPSADDLACVDEIARGCETKPITGLAGKTRFPELGALIDHAVLFIGVDSAPGHIAAAVKTPVISLFGATDHVFWRPWTENIIQFWAGNYQKMPTRHELDRNKKYLSVIPAEDVIAATEKLLPEDAPSADRNAQL
Result: 11.3

Ask: Then what about the sequence MIRNVLLAFMICSGMTLLGGCSSVMSHTGGKEGTYPGTRASATMIGDDETNWGTKSLAILDMPFTAVMDTLLLPWDVFRKDSSVRSRVEKSEANAQATNAVIPPARMPDN [P0ADM4] ?
Result: 11.1

Ask: Try MRTVLNILNFVLGGFATTLGWLLATLVSIVLIFTLPLTRSCWEITKLSLVPYGNEAIHVDELNPAGKNVLLNTGGTVLNIFWLIFFGWWLCLMHIATGIAQCISIIGIPVGIANFKIAAIALWPVGRRVVSVETAQAAREANARRRFE [P0AB12] next.
Result: 12

Ask: What about this sequence? MNKVAQYYRELVASLSERLRNGERDIDALVEQARERVIKTGELTRTEVDELTRAVRRDLEEFAMSYEESLKEESDSVFMRVIKESLWQELADITDKTQLEWREVFQDLNHHGVYHSGEVVGLGNLVCEKCHFHLPIYTPEVLTLCPKCGHDQFQRRPFEP [P0AAT9]
Result: 10.9
